From: PubChem BioAssay

# assay_procedure: probe aXIP binding to arrayed compounds – biochemical, NeuroSMM set, 635/667 nm fluorescence, primary screen (AID 1119);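 further: probe is the protein aXip251-270 applied at 1 µg/mL to compound-printed slides; binding of probe to printed compounds measured as 667 nm fluorescence plus signal to noise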
# condition_description: small-molecule microarray, higher = more signal, called active from +8 up or from −8 down
quantity: composite Z-score
Form field (numeric): enter value without unit.

composite Z-score for "COCCOC(=O)N1C(=O)[C@@]2(c3cc(C#CC4(O)CCCCCC4)ccc31)[C@H](c1ccc(O)cc1)N1[C@H](c3ccccc3)[C@H](c3ccccc3)OC(=O)[C@H]1[C@@H]2C(=O)N1CCN(c2ncccn2)CC1" ?
0.883

Next entry: "Cc1ccc(S[C@]2(C(=O)NC(C)C)CC(=O)N(Cc3cc(C(F)(F)F)cc(C(F)(F)F)c3)[C@@H]2c2ccc(CO)cc2)cc1"
-0.459

Next entry: COc1cc(NN2C(C(O)c3ccc(N(C)C)cc3)C=CC3C(=O)N(c4ccccc4)C(=O)C32)cc(OC)c1OC (configuration not stated)
0.785

Next entry: "COCCOC(=O)N1C(=O)[C@@]2(c3ccccc31)[C@H](c1ccc(O)cc1)N1[C@H](c3ccccc3)[C@H](c3ccccc3)OC(=O)[C@H]1[C@@H]2C(=O)N1CCN(c2ncccn2)CC1"
0.0692

Next entry: "C[N+](C)(C)CCCCCCNC(=O)[C@@H]1C[C@@H]2C(=O)N3CCC[C@H]3C(=O)N2[C@@H]1c1ccc(O)cc1"
0.05

Next entry: "NCCCCCCNC(=O)[C@@H]1C[C@@H]2C(=O)N[C@@H](CCCCN)C(=O)N2[C@@H]1c1ccc(O)cc1"
1.7

Next entry: "[N-]=[N+]=Nc1ccccc1C[C@@]1(C(N)=O)N=C(c2ccc(OCCCO)cc2)O[C@@H]1c1ccccc1N=[N+]=[N-]"
0.127

* * *

# tested_system: NADPH oxidase 2 (Homo sapiens)
# assay_procedure: compounds shifting NOX2 Amplex Red fluorescence – cell-based, HEK293-NOX2, PMA-stimulated, NOX inhibitor project, primary screen (AID 1159); further: test concentration not given here
# condition_description: 45 min, higher = more signal, called active from +8 up or from −8 down
quantity: z-score
Form field (numeric): enter value without unit.

Here's what some known entries look like.
> print(dat)
                               entry.smiles                   tested.system  recorded.measurement
1  CO[C@H]1O[C@H](CO)[C@@H](OC(=O)CCc2ccccc2)[C@@H]2OC(=O)[C@@H](Cc3ccccc3)C/C=C/C[C@H](Cc3ccccc3)C(=O)O[C@@H]12  NADPH oxidase 2 (Homo sapiens)                 -4.56
2  C=CC[C@]1(C(=O)N2CCCCC2)N=C(c2ccc(OCCCO)cc2)O[C@H]1c1ccccc1CN=[N+]=[N-]  NADPH oxidase 2 (Homo sapiens)                 -3.31

The record that follows has no z-score shown yet.
z-score for "COc1ccc([Si](C)(C)[C@@H]2[C@@H](CC(=O)N(CCO)Cc3ccccc3)O[C@]3(C(=O)N(Cc4cccc(N5CCCCC5=O)c4)c4ccccc43)[C@H]2C)cc1" ?
0.609

* * *

Let's look at some molecules and their measured composite z-score.
# Test system: Lefty1
# assay_procedure: Lefty1 protein binding to printed compounds – biochemical, small-molecule microarray, 635/667 nm fluorescence, primary screen (AID 1139)
# condition_description: fluorescence 635/667, higher = more signal

Here's what some known entries look like.
> print(dat)
                               entry.smiles           quantity  recorded.measurement
1  CC(C)[Si]1(C(C)C)OCc2cc(C3CC3)nc(-c3ccc(Oc4ccccc4)cc3)c21  composite z-score                -0.365
2  C=CC[C@]1(C(=O)N2CCCCC2)N=C(c2ccc(OCCCO)cc2)O[C@H]1c1ccccc1CN=[N+]=[N-]  composite z-score                 0.228
3  CO[C@H]1O[C@H](CO)[C@@H](OC(=O)Nc2ccc3c(c2)OCO3)[C@H](OC(=O)Nc2ccc3c(c2)OCO3)[C@@H]1OC(=O)Nc1ccc2c(c1)OCO2  composite z-score                 0.484
4  CC(C)N1C(=O)C[C@@](C(=O)NC2CC2)(c2ccc([N+](=O)[O-])cc2)[C@H]1c1ccc(CO)cc1  composite z-score                 -1.11
5  COc1ccc([Si](C)(C)[C@@H]2[C@@H](CCO)O[C@]3(C(=O)N(Cc4ccccc4)c4ccc(NC(=O)[C@H](C)O)cc43)[C@H]2C)cc1  composite z-score                  1.29

composite z-score for "CC[C@@H]1C=C(C(=O)O)[C@H](c2ccc(C#N)cc2)N1S(=O)(=O)c1ccc(C)cc1" ?
-0.833

Next entry: "Cc1ccc(S[C@]2(C(=O)NCC(F)(F)F)CC(=O)N(Cc3cc(C(F)(F)F)cc(C(F)(F)F)c3)[C@@H]2c2ccc(CO)cc2)cc1"
-0.126

* * *

# System: Noggin (protein binding on small-molecule microarray)
# assay_procedure: small molecules binding Noggin protein – biochemical, 635/667 nm fluorescence, primary screen (AID 1095);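 further: score merges 667 nm feature fluorescence with signal to noise over triplicate slides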
# condition_description: 635 nm fluorescence, higher = more signal
Threshold rule: composite z-score greater than or equal to 0.04 is YES; below that, NO.

Use the examples below as a reference point.
compound	group_label
COc1cc2c(cc1O)C(C1CC1)N(C)CC2 (stereo not drawn)	YES
CCCCNC(=O)c1ccc(C#CC(C)(C)C)c(OC(C)=O)c1	YES
CCCNC(=O)[C@@]1(Sc2ccc(C)cc2)CC(=O)N(C2Cc3ccccc3C2)[C@@H]1c1ccc(CO)cc1I	NO

Please indicate if the recorded composite z-score for "C=CC[C@H](OC(=O)Nc1ccc(SC)cc1)c1ccc(O)c2ccccc12" meets or exceeds 0.04.
YES

Next entry: "COC(=O)[C@@]1(Cc2ccccc2)[C@H]2c3cc(C(=O)N(C)C)n(Cc4ccc(C)o4)c3C[C@H]2CN1C(=O)c1ccccc1"
NO

Next entry: "Oc1ccc2cc[n+](Cc3cc4c(cc3Br)OCO4)cc2c1"
NO

Next entry: C=CCC(OC(C)=O)[C@@H]1[C@@H](N(Cc2ccc(-c3cccc(C(F)(F)F)c3)o2)C(=O)c2ccc(-c3ccccc3)cc2)c2cc(OCCCO)ccc2N1C(=O)Cc1ccc2ccccc2c1 (stereo partly drawn)
NO

Next entry: "O=C(NCCN1CCOCC1)[C@@H]1c2ccccc2C(=O)N(Cc2ccccc2Cl)[C@H]1c1ccc(CO)cc1"
NO

* * *

# assay_procedure: probe aLefty1 binding on compound microarray – biochemical, small-molecule microarray, 635/667 nm fluorescence, primary screen (AID 1153);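 further: score merges spot fluorescence with signal-to-noise ratio from the scanned slide images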
# condition_description: higher = more signal
quantity: composite z-score
Form field (numeric): enter value without unit.

Here's what some known entries look like.
compound	composite z-score
C=CC[C@H](OC(=O)Nc1ccc(SC)cc1)c1ccc(O)c2ccccc12	0.27
O=C1O[C@H](c2ccccc2)[C@H](c2ccccc2)N2[C@H]1[C@@H](C(=O)O)[C@]1(C(=O)Nc3ccc(C#CCCO)cc31)[C@H]2c1ccccc1OCCO	0.0026
Cc1ccc(C(C)CC(O)C2C=CC3C(=O)N(c4ccccc4)C(=O)C3N2Nc2ccccc2)o1 (configuration not stated)	0.738
Cc1ccc(NN2C(C(O)c3c(F)cccc3Cl)C=CC3C(=O)N(C4CCCCC4)C(=O)C32)cc1 (configuration not stated)	0.23
O=C1N(Cc2ccccc2)c2ccccc2C[C@]12N=C(c1ccc(OCCCO)cc1)O[C@@H]2c1ccccc1	-0.0968
CC1=C2[C@@H](CCc3ccccc3)OB(O)C[C@@H]2[C@@H]2C(=O)N(C)C(=O)[C@@H]2C1	0.035

The record that follows has no composite z-score shown yet.
composite z-score for "COC(=O)C(CC#Cc1ccc2c(c1)[C@]1(C(=O)N2)[C@H](c2ccc(O)cc2)N2[C@H](c3ccccc3)[C@H](c3ccccc3)OC(=O)[C@H]2[C@@H]1C(=O)NC[C@H](O)c1ccccc1)C(=O)OC" ?
-0.0518

* * *

# assay_procedure: resazurin metabolic signal in A549 cells – cell-based, resazurin fluorescence, 24 h, PK04 Diversity Set, profiling panel (AID 1171); further: test concentration not given here
# condition_description: A549 viability, higher = more signal, called active from +8 up or from −8 down
Calls of active or inactive are those of the source.
Let's look at some compounds and their measured z-score.

Here's what some known entries look like.
compound	z-score
Cc1ccc(F)cc1S(=O)(=O)N[C@@H]1CCN(Cc2ccc(Br)cc2)C1	0.728 (inactive)
CCCC#C[Si](O[C@H](CC)c1cn([C@H](C)c2ccccc2)nn1)(C(C)C)C(C)C	0.61 (inactive)

z-score for "CC(C)=C1C(=O)C(c2ccccc2)=C2CN3C(=O)N(CCc4ccccc4)C(=O)[C@]3(Cc3ccc(C(F)(F)F)cc3)[C@H]21" ?
-0.327 (inactive)

Next entry: CCCCCCCCCCC(O)C1C=CC2C(=O)N(c3ccccc3)C(=O)C2N1Nc1ccc(C#N)cc1 (stereo not drawn)
-0.186 (inactive)

Next entry: "COc1cc2c(cc1O)C=[N+](Cc1sc3ccccc3c1Cl)CC2"
0.33 (inactive)

Next entry: "COCCOC(=O)N1C(=O)[C@@]2(c3cc(C#CC4=CCCCC4)ccc31)[C@H](c1ccccc1OCCO)N1[C@H](c3ccccc3)[C@H](c3ccccc3)OC(=O)[C@H]1[C@@H]2C(=O)N1CCN(c2ncccn2)CC1"
0.753 (inactive)

Next entry: O=C(Cc1ccccc1)[C@H]1C2C=CCCC(c3ccccc3)=C2CN1Cc1ccccc1 (stereo partly drawn)
0.807 (inactive)

Next entry: "COc1ccc(CCNC(=O)[C@@]2(c3ccc([N+](=O)[O-])cc3)CC(=O)N(C3CCCCC3)[C@@H]2c2ccc(CO)cc2)cc1"
1.28 (inactive)
